Values were extracted from patent US7223780B2.

- target_of_assay: human factor Xa (Homo sapiens, UniProt P00742)
- Sequence (P00742 235-488 limits assumed): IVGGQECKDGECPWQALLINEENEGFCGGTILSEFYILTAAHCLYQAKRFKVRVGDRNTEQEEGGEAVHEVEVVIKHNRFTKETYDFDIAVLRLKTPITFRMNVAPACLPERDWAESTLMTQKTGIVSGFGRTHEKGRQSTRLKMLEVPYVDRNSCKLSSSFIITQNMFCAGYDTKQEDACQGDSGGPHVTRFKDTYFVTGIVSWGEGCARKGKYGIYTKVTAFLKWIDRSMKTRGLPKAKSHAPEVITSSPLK
- Sequence (P00742 41-179 partner limits assumed): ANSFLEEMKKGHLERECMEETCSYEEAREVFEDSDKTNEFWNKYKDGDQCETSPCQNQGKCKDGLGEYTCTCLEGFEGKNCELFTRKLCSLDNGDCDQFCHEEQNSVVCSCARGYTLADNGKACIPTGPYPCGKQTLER
parameter_measured: Ki
Your reply should be a number followed by the unit it is expressed in.

Q. Give reported Ki value for `CC(C)N1CCC(NC(=O)c2nnn(Cc3cc(-c4ccc(Cl)s4)on3)n2)CC1`
A. 330 nM
